Test system: 885724-159-R-J1-PDC KRAS PDC multicell spheroid viability;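 further: spheroids exposed to agents for 7 days before readout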
Experiment: Anticancer human tumor 885724-159-R-J1-PDC patient-derived pancreatic adenocarcinoma cell line growth inhibition [KRAS2]
Conditions: curve of first compound; second compound 1 µM
Would you kindly list pIC50 for each of these molecules?
# pIC50 is unitless: minus log10 of the molar concentration; print number only

Lab entry: 885724-159-R-J1-PDC KRAS PDC multicell spheroid viability assay, molecule COc1cc2nccc(Oc3ccc(NC(=O)C4(C(=O)Nc5ccc(F)cc5)CC4)cc3)c2cc1OC + CNCc1ccccc1-c1csc(C(C)Nc2nc(C)nc3cc(OC)c(OC)cc23)c1 , pIC50 = 5.75

Lab entry: 885724-159-R-J1-PDC KRAS PDC multicell spheroid viability assay, molecule Cn1nccc1Nc1nccc(-c2cc3c(s2)C(C)(C)N(CCN2CCOCC2)C3=O)n1 + C=CC(=O)N1CCN(c2nc(OCC3CCCN3C)nc3c2CCN(c2cccc4cccc(C)c24)C3)CC1CC#N , pIC50 = 6.38

Lab entry: 885724-159-R-J1-PDC KRAS PDC multicell spheroid viability assay, molecule COC(=O)c1ccc2c(C(=Nc3ccc(N(C)C(=O)CN4CCN(C)CC4)cc3)c3ccccc3)c(O)[nH]c2c1 + COc1cc2nc(C)nc(NC(C)c3cc(N)cc(C(F)(F)F)c3)c2cc1OC1CCOC1 , pIC50 = 5.70

Lab entry: 885724-159-R-J1-PDC KRAS PDC multicell spheroid viability assay, molecule CC(=O)Nc1cccc(-n2c(=O)n(C3CC3)c(=O)c3c(Nc4ccc(I)cc4F)n(C)c(=O)c(C)c32)c1 + C=CC(=O)N1CCN(c2nc(=O)n(-c3c(C)ccnc3C(C)C)c3nc(-c4c(O)cccc4F)c(F)cc23)C(C)C1 , pIC50 = 8.70

Lab entry: 885724-159-R-J1-PDC KRAS PDC multicell spheroid viability assay, molecule CC(=O)Nc1cccc(-n2c(=O)n(C3CC3)c(=O)c3c(Nc4ccc(I)cc4F)n(C)c(=O)c(C)c32)c1 + COc1cc2nc(C)nc(NC(C)c3cc(N)cc(C(F)(F)F)c3)c2cc1OC1CCOC1 , pIC50 = 9.07

Lab entry: 885724-159-R-J1-PDC KRAS PDC multicell spheroid viability assay, molecule CC1COCCN1c1cc(-c2ccnn2C)c2ccnc(-c3ccn[nH]3)c2n1 (stereo not given) + C=CC(=O)N1CCN(c2nc(=O)n(-c3c(C)ccnc3C(C)C)c3nc(-c4c(O)cccc4F)c(F)cc23)C(C)C1 , pIC50 = 5.62

Lab entry: 885724-159-R-J1-PDC KRAS PDC multicell spheroid viability assay, molecule COC(=O)c1ccc2c(C(=Nc3ccc(N(C)C(=O)CN4CCN(C)CC4)cc3)c3ccccc3)c(O)[nH]c2c1 + CNCc1ccccc1-c1csc(C(C)Nc2nc(C)nc3cc(OC)c(OC)cc23)c1 , pIC50 = 5.66

Lab entry: 885724-159-R-J1-PDC KRAS PDC multicell spheroid viability assay, molecule CC(C)NCC(C(=O)N1CCN(c2ncnc3c2C(C)CC3O)CC1)c1ccc(Cl)cc1 (stereo not given) + CNCc1ccccc1-c1csc(C(C)Nc2nc(C)nc3cc(OC)c(OC)cc23)c1 , pIC50 = 5.38
